- method description: LD50 of the hydrochloride
- measurement context: in vivo, sc
Counter-ions that a name gives are not always drawn.
measurement kind: LD50

compound | measurement kind | measured value
CC(=O)Oc1cc2c(cc1OC(C)=O)OC(=O)[C@@H](N)C2 [hydrochloride] | LD50 | 250 to 500 mg/kg
